- Tested on: Vibrio cholerae
- Test Name: Antibacterial activity against Vibrio cholerae MTCC 3906 after 24 hrs by broth microdilution method
- Format: functional
- Conditions Used: MTCC 3906, 24 h
Readout Kind: MIC (µg/mL)
Number in µg/mL, nothing else.

Tell me reported MIC for "Cc1nn(-c2ccc(Cl)c(Cl)c2)c2c1[C@@H]1c3c(ccc4c(C)cc(=O)oc34)OC[C@@H]1C(C)(C)O2" , tested with Vibrio cholerae.
125

Which measured MIC belongs to "Cc1nn(-c2ccc([N+](=O)[O-])cc2)c2c1[C@@H]1c3c(ccc4c(C)cc(=O)oc34)OC[C@@H]1C(C)(C)O2" , tested on Vibrio cholerae?
200

Write down the reported MIC of "Cc1ccc(-n2nc(C)c3c2OC[C@H]2COc4ccc5c(C)cc(=O)oc5c4[C@@H]32)cc1" , test system: Vibrio cholerae.
200

// lookup MIC | system=Vibrio cholerae | key= "Cc1nn(-c2ccccc2Cl)c2c1[C@@H]1c3c(ccc4c(C)cc(=O)oc34)OC[C@@H]1CO2"
250

In the following, a different molecule is considered.
Lab note: need MIC for "Cc1nn(-c2ccc(Cl)c(Cl)c2)c2c1[C@@H]1c3cc4cccc(C)c4nc3SC[C@@H]1CO2" on Vibrio cholerae, anyone have it?
250

---

- Test Name: Antioxidant activity assessed as ascorbic acid equivalent ferric ion reducing activity per 100 gram at 200 ug/ml by FRAP assay
- Assay type: functional
Listing of recorded Activity by entry.
Your answer should be a plain number; it is taken to be in mmol.

Use these answered entries as a reference point.
Which Activity is listed for "Cc1nn(-c2ccc(Cl)c(Cl)c2)c2c1[C@@H]1c3c(ccc4c(C)cc(=O)oc34)OC[C@@H]1C(C)(C)O2" ?
150

Name the recorded Activity for "Cc1nn(-c2cc(Cl)ccc2Cl)c2c1[C@@H]1c3c(ccc4c(C)cc(=O)oc34)OC[C@@H]1CO2" .
184

Endpoint output: Activity of "c1ccc(-c2nn(-c3ccccc3)c3c2[C@@H]2c4cc5ccccc5nc4SC[C@@H]2CO3)cc1" . Value?
105

What does the record list as Activity for "Cc1nn(-c2ccc(Cl)c(Cl)c2)c2c1[C@@H]1c3c(ccc4c(C)cc(=O)oc34)OC[C@@H]1CO2" ?
120

Need Activity, item Cc1nn(-c2cccc(Cl)c2)c2c1[C@@H]1c3cc4cccc(C)c4nc3SC[C@@H]1C(C)(C)O2 (single isomer, unassigned)
18.2

Next:
Activity for "Cc1nn(-c2ccc([N+](=O)[O-])cc2)c2c1[C@@H]1c3c(ccc4c(C)cc(=O)oc34)OC[C@@H]1C(C)(C)O2" ?
138

Request the reported Activity associated with "Cc1nn(-c2cc(Cl)ccc2Cl)c2c1[C@@H]1c3c(ccc4c(C)cc(=O)oc34)OC[C@@H]1C(C)(C)O2"
187

---

- System: Escherichia coli
- Test Name: Antibacterial activity against Escherichia coli MTCC 443 after 24 hrs by broth microdilution method
- Type: functional
- Conditions Used: MTCC 443, 24 h
Readout Kind: MIC (µg/mL)
State just the number; it will be interpreted in µg/mL.

Examples with answers:
Name the recorded MIC for "Cc1nn(-c2ccc([N+](=O)[O-])cc2)c2c1[C@@H]1c3c(ccc4c(C)cc(=O)oc34)OC[C@@H]1CO2" .
125

So what's the measured MIC for this one? "Cc1ccc(-n2nc(C)c3c2OC[C@H]2CSc4nc5c(C)cccc5cc4[C@@H]32)cc1"
100

What value of MIC has been recorded for this entry: "c1ccc(-c2nn(-c3ccccc3)c3c2[C@@H]2c4cc5ccccc5nc4SC[C@@H]2CO3)cc1"
100

Further cases:
What value of measured MIC is listed for Cc1ccc(-n2nc(C)c3c2OC(C)(C)[C@H]2CSc4nc5c(C)cccc5cc4[C@@H]32)cc1 (single isomer, unassigned) ?
125

Fill in: MIC of "Cc1nn(-c2ccccc2)c2c1[C@@H]1c3cc4cccc(C)c4nc3SC[C@@H]1CO2" is ___
250

So what's the measured MIC for this one? Cc1nn(-c2ccccc2Cl)c2c1[C@@H]1c3cc4cccc(C)c4nc3SC[C@@H]1C(C)(C)O2 (single isomer, unassigned)
200

Form field: reported MIC of "Cc1nn(-c2cccc(Cl)c2)c2c1[C@@H]1c3c(ccc4c(C)cc(=O)oc34)OC[C@@H]1CO2"
100
